Consider the following compounds; for each one, report its log10 GI50.
test system: HOP-62; test: Antiproliferative activity against human HOP62 cell line; format: functional
Hello, just confirming the data are log10 of GI50 with units of µM.

{"columns": ["structureNotation", "testResult"],
 "data": [
  ["O=C1c2ccccc2-c2c1c1ccccc1c(=O)n2CCCN1CCN(CCCn2c3c(c4ccccc4c2=O)C(=O)c2ccccc2-3)CC1", 1.11]
]}

Please look at the items below and tell me log10 GI50 for each one, in order.
1. COc1cc2c3c(n(CCCNCCCNCCCn4c5c(c6cc(OC)c(OC)cc6c4=O)C(=O)c4ccccc4-5)c(=O)c2cc1OC)-c1ccccc1C3=O
2. O=C1c2ccccc2-c2c1c1ccccc1c(=O)n2CCNCCNCCn1c2c(c3ccccc3c1=O)C(=O)c1ccccc1-2
3. CC(C)(C)OC(=O)N(CCCCN(CCCn1c2c(c3ccccc3c1=O)C(=O)c1ccccc1-2)C(=O)OC(C)(C)C)CCCn1c2c(c3ccccc3c1=O)C(=O)c1ccccc1-2

1: 0.18; 2: -1.49; 3: 1.04

Report its log10 GI50 with HOP-62 as the test system: COc1cc2c3c(n(CCNCCCNCCn4c5c(c6cc(OC)c(OC)cc6c4=O)C(=O)c4ccccc4-5)c(=O)c2cc1OC)-c1ccccc1C3=O
-1.17

---

tested on: HOP-62; experiment: Antiproliferative activity against human HOP62 cell line; format: functional
Consider the following compounds; for each one, report its log10 of GI50.
Hello, just confirming the data are log10 of GI50 with units of nM.

{"columns": ["compound", "tgt", "log10 of GI50"],
 "data": [
  ["CC(C)(C)OC(=O)N(CCCn1c2c(c3ccccc3c1=O)C(=O)c1ccccc1-2)CCN(CCCn1c2c(c3ccccc3c1=O)C(=O)c1ccccc1-2)C(=O)OC(C)(C)C", "HOP-62", 4.30],
  ["CC(C)(C)OC(=O)N(CCCN(CCn1c2c(c3ccccc3c1=O)C(=O)c1ccccc1-2)C(=O)OC(C)(C)C)CCn1c2c(c3ccccc3c1=O)C(=O)c1ccccc1-2", "HOP-62", 4.35],
  ["O=C1c2ccccc2-c2c1c1ccccc1c(=O)n2CCNCCNCCNCCNCCn1c2c(c3ccccc3c1=O)C(=O)c1ccccc1-2", "HOP-62", 2.99],
  ["O=C1c2ccccc2-c2c1c1ccccc1c(=O)n2CCCNCCCn1c2c(c3ccccc3c1=O)C(=O)c1ccccc1-2", "HOP-62", 2.90],
  ["O=C1c2ccccc2-c2c1c1ccccc1c(=O)n2CCNCCNCCNCCn1c2c(c3ccccc3c1=O)C(=O)c1ccccc1-2", "HOP-62", 1.68],
  ["O=C1c2ccccc2-c2c1c1ccccc1c(=O)n2CCCNCCn1c2c(c3ccccc3c1=O)C(=O)c1ccccc1-2", "HOP-62", 2.99]
]}

Would you kindly look at the next entry?
Report its log10 of GI50 with HOP-62 as the test system: CC[C@@]1(O)C(=O)OCc2c1cc1n(c2=O)Cc2cc3ccccc3nc2-1 [CAMPTOTHECIN]
1.00

---

biological target: UniProt:P11387; assay: Inhibition of human recombinant Top1-mediated DNA cleavage upto 10 uM
Sequence (P11387 whole entry): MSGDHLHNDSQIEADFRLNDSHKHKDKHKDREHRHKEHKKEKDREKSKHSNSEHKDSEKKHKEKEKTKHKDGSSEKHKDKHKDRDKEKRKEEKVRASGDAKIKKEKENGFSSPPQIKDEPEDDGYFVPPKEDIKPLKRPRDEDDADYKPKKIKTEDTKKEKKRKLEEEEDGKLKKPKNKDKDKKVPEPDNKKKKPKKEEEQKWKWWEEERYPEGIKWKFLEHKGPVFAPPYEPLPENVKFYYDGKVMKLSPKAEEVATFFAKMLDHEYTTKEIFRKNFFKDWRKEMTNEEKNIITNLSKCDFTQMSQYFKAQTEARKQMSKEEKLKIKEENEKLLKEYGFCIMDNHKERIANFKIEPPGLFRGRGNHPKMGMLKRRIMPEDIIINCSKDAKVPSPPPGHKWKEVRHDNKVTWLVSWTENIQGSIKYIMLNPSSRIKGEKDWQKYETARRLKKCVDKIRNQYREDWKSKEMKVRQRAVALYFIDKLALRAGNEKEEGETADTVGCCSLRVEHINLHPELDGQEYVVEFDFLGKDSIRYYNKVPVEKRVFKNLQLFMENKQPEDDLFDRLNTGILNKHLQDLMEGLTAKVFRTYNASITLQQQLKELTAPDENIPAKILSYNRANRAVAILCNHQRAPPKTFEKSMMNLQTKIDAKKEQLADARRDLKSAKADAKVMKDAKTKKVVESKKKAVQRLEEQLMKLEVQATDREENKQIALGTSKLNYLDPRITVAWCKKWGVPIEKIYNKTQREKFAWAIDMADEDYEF
Calls of active or inactive are those of the source. No cut-off for these calls is given here.
endpoint: Activity

{"columns": ["structureNotation", "Activity"],
 "data": [
  ["O=C1c2ccccc2-c2c1c1ccccc1c(=O)n2CCCNCCNCCCn1c2c(c3ccccc3c1=O)C(=O)c1ccccc1-2", "Active"],
  ["O=C1c2ccccc2-c2c1c1ccccc1c(=O)n2CCCNCCCCNCCCn1c2c(c3ccccc3c1=O)C(=O)c1ccccc1-2", "Active"],
  ["O=C1c2ccccc2-c2c1c1ccccc1c(=O)n2CCCNCCCNCCCn1c2c(c3ccccc3c1=O)C(=O)c1ccccc1-2", "Active"],
  ["O=C1c2ccccc2-c2c1c1ccccc1c(=O)n2CCNCCCNCCn1c2c(c3ccccc3c1=O)C(=O)c1ccccc1-2", "Active"]
]}

Dear colleague, please send me the reported Activity for O=C1c2ccccc2-c2c1c1ccccc1c(=O)n2CCNCCNCCNCCn1c2c(c3ccccc3c1=O)C(=O)c1ccccc1-2 when you can.
Active
